Molecular target: rat mGluR5 (Rattus norvegicus)
Construct: expressed in transfected cells; host or cells: human embryonic kidney (HEK) cells
Test: potentiation of mGluR5 response to glutamate, Ca2+ fluorescence (FDSS) in HEK cells transfected with rat mGluR5
Type: cell-based
Conditions: Table 1, EC50 for potentiating the mGluR5 receptor; unit inferred; read-out: EC50
observable: log10(EC50) (log10 of the value in nM)
Answers are given as log10 of EC50 in nM.

Example results:
> print(dat)
                                   compound  experimentalvalue
1  O=C(c1ccc(C#Cc2cccc(F)c2)cc1)N1CCC(O)CC1 [Compound 19b]               0.51
2     O=C(NCCN1CCCCC1)c1ccc(C#Cc2ccccc2)cc1               3.25

Qu. // log10(EC50) lookup, key: CCN1CCC[C@H]1CNC(=O)c1ccc(C#Cc2ccccc2)cc1
Ans. 3.01

Qu. Next: CC(C)(C)CCNC(=O)c1ccc(-c2nc(-c3ccccc3)no2)cc1
Ans. 3.06

Qu. Please answer likewise for O=C(NCCN1CCOCC1)c1ccc(C#Cc2ccccc2)cc1
Ans. 2.14

---

Target: rat mGluR5 (Rattus norvegicus, UniProt P31424)
Construct: expressed in transfected cells; host or cells: human embryonic kidney (HEK) cells
Sequence (P31424 21-1203): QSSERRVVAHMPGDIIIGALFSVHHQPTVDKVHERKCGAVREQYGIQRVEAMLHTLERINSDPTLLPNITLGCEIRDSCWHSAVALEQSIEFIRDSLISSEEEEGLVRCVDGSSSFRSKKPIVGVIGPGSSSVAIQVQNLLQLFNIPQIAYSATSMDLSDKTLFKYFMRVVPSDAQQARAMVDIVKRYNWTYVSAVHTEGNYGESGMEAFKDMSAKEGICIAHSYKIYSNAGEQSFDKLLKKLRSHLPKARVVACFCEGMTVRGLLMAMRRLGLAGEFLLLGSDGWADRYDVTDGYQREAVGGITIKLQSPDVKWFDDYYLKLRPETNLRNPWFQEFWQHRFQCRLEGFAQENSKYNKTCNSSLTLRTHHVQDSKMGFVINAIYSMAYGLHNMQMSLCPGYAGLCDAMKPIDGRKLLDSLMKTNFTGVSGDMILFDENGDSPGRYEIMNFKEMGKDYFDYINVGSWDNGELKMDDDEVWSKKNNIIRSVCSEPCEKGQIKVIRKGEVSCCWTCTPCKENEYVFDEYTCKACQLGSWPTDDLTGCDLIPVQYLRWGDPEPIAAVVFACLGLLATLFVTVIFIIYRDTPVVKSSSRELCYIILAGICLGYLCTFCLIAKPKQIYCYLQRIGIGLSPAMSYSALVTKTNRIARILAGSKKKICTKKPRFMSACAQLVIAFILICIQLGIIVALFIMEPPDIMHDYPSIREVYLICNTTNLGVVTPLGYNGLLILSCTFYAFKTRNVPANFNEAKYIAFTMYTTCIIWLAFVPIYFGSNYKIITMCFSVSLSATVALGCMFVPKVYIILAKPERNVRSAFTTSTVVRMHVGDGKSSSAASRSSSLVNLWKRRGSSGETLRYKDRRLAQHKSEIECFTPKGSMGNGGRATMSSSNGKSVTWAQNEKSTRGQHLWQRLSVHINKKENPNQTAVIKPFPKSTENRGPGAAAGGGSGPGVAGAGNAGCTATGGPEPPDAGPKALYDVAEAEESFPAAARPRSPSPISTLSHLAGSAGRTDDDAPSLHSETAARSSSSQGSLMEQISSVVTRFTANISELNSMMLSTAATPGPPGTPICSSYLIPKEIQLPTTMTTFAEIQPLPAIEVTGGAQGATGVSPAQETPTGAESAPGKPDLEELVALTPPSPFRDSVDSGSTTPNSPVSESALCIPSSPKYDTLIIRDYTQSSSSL
Assay: potentiation of mGluR5 response to glutamate, Ca2+ fluorescence (FDSS) in HEK cells transfected with rat mGluR5
Assay type: cell-based
Details: Table 1, EC50 for potentiating the mGluR5 receptor; unit inferred; read-out: EC50
pEC50: −log10 of the molar value.
Returns one of Satisfied or Not satisfied; Satisfied when pEC50 is >= 7.

> print(dat)
                                   molecule                                testsystem       category
1  O=C(c1ccc(C#Cc2ccccc2)cc1)N1CCC(O)(c2ccc(Cl)cc2C(F)(F)F)CC1  rat mGluR5 (Rattus norvegicus, UniProt P31424)  Not satisfied
2  O=C(NCCc1cccc(Cl)c1)c1ccc(C#Cc2ccccc2)cc1  rat mGluR5 (Rattus norvegicus, UniProt P31424)  Not satisfied

# next molecule below
Qu. State whether the measured pEC50 reaches 7, counting equality as reaching it, for CCCNC(=O)c1ccc(C#Cc2ccccc2)cc1 [4-(phenylethynyl)-N-propylbenzamide]
Ans. Satisfied

---

Target: rat mGluR5 (Rattus norvegicus)
Construct: expressed in transfected cells; host or cells: human embryonic kidney (HEK) cells
Experiment: potentiation of mGluR5 response to glutamate, Ca2+ fluorescence (FDSS) in HEK cells transfected with rat mGluR5
Assay type: cell-based
Conditions: HEK293; maximum extent of potentiation, normalized to maximal response to glutamate; SAR tables; read-out: % Glu Max
Threshold check on Emax: strictly below 90% is 1; on or above 90% is -1.

> print(dat)
                                   compound  category
1  O=C(c1ccc(C#Cc2ccccc2F)cc1)N1CCOCC1 [Compound 20i]        -1
2  O=C(c1ccc(C#Cc2cccc(F)c2)cc1)N1CC(O)C1 [Compound 20n]        -1
3  O=C(c1ccc(C#Cc2ccc(F)cc2)cc1)N1CCC(O)CC1 [Compound 19c]         1
4  O=C(c1ccc(C#Cc2ccccc2)cc1)N1CC(O)(c2cccs2)C1         1

Qu. State whether 90% exceeds Emax recorded for O=C(c1ccc(C#CC2CCCCC2)cc1)N1CCC(O)CC1 [Compound 19m] .
Ans. 1
